// provenance: patent US12091776B2

# TARGET ENTITY: T1, ADAM17 (Homo sapiens, UniProt P78536)
# T1 construct: purchased RnD Systems
# T1 sequence (P78536 215-824): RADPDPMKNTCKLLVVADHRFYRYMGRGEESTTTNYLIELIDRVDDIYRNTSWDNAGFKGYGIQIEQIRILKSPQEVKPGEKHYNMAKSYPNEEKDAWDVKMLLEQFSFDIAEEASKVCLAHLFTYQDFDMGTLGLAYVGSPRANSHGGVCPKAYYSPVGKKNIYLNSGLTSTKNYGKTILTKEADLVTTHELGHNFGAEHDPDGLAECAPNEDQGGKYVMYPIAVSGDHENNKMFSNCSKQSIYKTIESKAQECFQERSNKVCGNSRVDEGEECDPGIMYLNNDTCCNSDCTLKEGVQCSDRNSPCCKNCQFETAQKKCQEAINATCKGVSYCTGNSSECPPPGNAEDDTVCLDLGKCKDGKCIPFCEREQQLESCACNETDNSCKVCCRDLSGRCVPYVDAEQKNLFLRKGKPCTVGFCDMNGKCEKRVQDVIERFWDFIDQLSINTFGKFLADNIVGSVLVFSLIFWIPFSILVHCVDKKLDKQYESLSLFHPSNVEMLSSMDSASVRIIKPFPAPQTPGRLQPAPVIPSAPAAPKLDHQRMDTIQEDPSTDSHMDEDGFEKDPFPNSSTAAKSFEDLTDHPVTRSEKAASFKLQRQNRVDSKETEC
# PROTOCOL DETAILS: SEPARATE assay: human peptidome library digest with ADAM17
# Format: biochemical
# TEST CONTEXT: top 20 enriched peptides, human library (90-aa tiles); digest vs mock digest

MOLECULE: PARLLGPSLTSTTPASSSSGSSSRGPSDTSSRFSKEQRGVAQPLAQLRSCPQEEGPRGRGLAARPLENRAGGPVARSEEPGAPLPVAVGT (protein, listed as Homo sapiens) PARLLGPSLTSTTPASSSSGSSSRGPSDTSSRFSKEQRGVAQPLAQLRSCPQEEGPRGRGLAARPLENRAGGPVARSEEPGAPLPVAVGT
Adam17 Fold Change: 45.89 fold
--
MOLECULE: MELQSRPEALAVELARHQNGDLKKQLHERQPRIAALSDKQALGTITAVPVTGPQVSSLQRLAGQGAAVLPQVRPKTLIPDSLPVAPGRDR (protein, listed as Homo sapiens) MELQSRPEALAVELARHQNGDLKKQLHERQPRIAALSDKQALGTITAVPVTGPQVSSLQRLAGQGAAVLPQVRPKTLIPDSLPVAPGRDR
Adam17 Fold Change: 38.34 fold
